target: recombinant human SK (Homo sapiens, UniProt Q9NYA1); construct: glutathione-S-transferase (GST) (N); made in house; host or cells: bacteria (pGEX vector); assay: Inhibition of recombinant human SK, LC/MS/MS assay; assay type: biochemical; settings: 6 μg/ml compound
Sequence (Q9NYA1 whole entry): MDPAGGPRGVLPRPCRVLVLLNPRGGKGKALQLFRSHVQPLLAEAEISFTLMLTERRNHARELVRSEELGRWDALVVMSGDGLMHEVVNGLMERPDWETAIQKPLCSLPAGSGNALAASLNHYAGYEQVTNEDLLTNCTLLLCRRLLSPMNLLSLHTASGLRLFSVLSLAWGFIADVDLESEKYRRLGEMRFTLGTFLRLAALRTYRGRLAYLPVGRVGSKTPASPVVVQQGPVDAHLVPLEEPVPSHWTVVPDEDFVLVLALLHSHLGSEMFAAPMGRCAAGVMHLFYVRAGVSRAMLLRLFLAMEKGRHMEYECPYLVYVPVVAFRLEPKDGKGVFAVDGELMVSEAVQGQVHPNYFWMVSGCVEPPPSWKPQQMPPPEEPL
Recorded Endpoint: inhibition at 6 µg/mL (%)

Some solved cases for reference:
CCCC(=O)Oc1ccc(CC(=O)Nc2nc(-c3ccc(Cl)cc3)cs2)cc1N; 58
O=C(NCc1ccc(C(F)(F)F)cc1)c1nc(-c2ccc(Cl)cc2)cs1; 86
O=C(Cc1ccc(F)cc1)Nc1nc(-c2ccc(Cl)cc2)cs1; 54
O=C(Nc1nc(-c2ccc(Cl)cc2)cs1)c1ccc(Cl)cc1Cl; 73
CCCC(=O)Oc1ccc(CCC(=O)Nc2nc(-c3ccc(Cl)cc3)cs2)cc1OC; 0
CCCCCCCCCCCCCC(=O)Nc1nc(-c2ccc(Cl)cc2)cs1; 30
O=C(NCc1ccc(F)c(C(F)(F)F)c1)c1nc(-c2ccc(Cl)cc2)cs1; 44

(P) O=C(C=Cc1ccc2c(c1)OCO2)Nc1nc(-c2ccc(Cl)cc2)cs1
(Q) CCCC(=O)Oc1ccc(C=CC(=O)Nc2nc(-c3ccc(F)cc3)cs2)cc1OC
Which of the two gives a bigger number for inhibition at 6 µg/mL: P or Q ? The response must carry the label of the picked entry. Q
(Q: 87%, P: 26%)

* * *

experiment: Oral pharmacokinetics in mice; assay type: in vivo; details: mouse, whole blood; 100 mg/kg oral gavage in PEG400, female Swiss-Webster mice, blood; read-out: AUC0 → ∞ (μg*h/mL)
Recorded Endpoint: AUC(0-inf) (µg·h/mL)
Give the quantity in µg·h/mL, number only.

Which AUC(0-inf) is reported for this compound? CCCC(=O)Oc1ccc(C=CC(=O)Nc2nc(-c3ccc(Cl)cc3)cs2)cc1OC 475

* * *

assay: Oral pharmacokinetics in mice; format: in vivo; conditions: female, Swiss-Webster, mouse, whole blood; 100 mg/kg oral gavage, mice
Recorded Endpoint: Tmax (h)
Give the quantity in h, number only.

Which Tmax is reported for this molecule? CCCC(=O)Oc1ccc(C=CC(=O)Nc2nc(-c3ccc(Cl)cc3)cs2)cc1OC [Compound 8] 1

* * *

biological target: recombinant human SK (Homo sapiens); construct: glutathione-S-transferase (GST) (N); made in house; host or cells: bacteria (pGEX vector); experiment: Inhibition of recombinant human SK, LC/MS/MS assay; format: biochemical; details: 6 μg/ml compound
Recorded Endpoint: inhibition at 6 µg/mL (%)

Some solved cases for reference:
Clc1ccc(-c2csc(N(CCCc3ccccc3)CCCc3ccccc3)n2)cc1; 44
O=C(NCCc1ccncc1)c1nc(-c2ccc(Cl)cc2)cs1; 0
CCCCCCCCC=CCCCCCCCC(=O)Nc1nc(-c2ccc(Cl)cc2)cs1; 0
O=C(NCc1cc(F)cc(F)c1)c1nc(-c2ccc(Cl)cc2)cs1; 14
CC(C)(C)NCCCNC(=O)c1nc(-c2ccc(Cl)cc2)cs1; 16

(1) CN1CCN(NC(=O)c2nc(-c3ccc(Cl)cc3)cs2)CC1
(2) O=C(NCc1ccc(F)c(F)c1)c1nc(-c2ccc(Cl)cc2)cs1
Please let me know which one, 1 or 2 , has a lower measured inhibition at 6 µg/mL value. The response must carry the label of the picked entry. 2
(2: 56%, 1: 80%)

(P) O=C(NCCc1ccc2c(c1)OCO2)c1nc(-c2ccc(Cl)cc2)cs1
(Q) COc1ccc(CCC(=O)Nc2nc(-c3ccc(Cl)cc3)cs2)cc1OC
(R) CCCC(=O)Oc1cccc(C=CC(=O)Nc2nc(-c3ccc(Cl)cc3)cs2)c1
Place the items in sequence of falling inhibition at 6 µg/mL. The labels, placed in the requested order, form the answer. P, Q, R

(P) Fc1cc(F)cc(OCNc2nc(-c3ccc(Cl)cc3)cs2)c1
(Q) O=C(NCCCN1CCCC1)c1nc(-c2ccc(Cl)cc2)cs1
(R) CCCC(=O)Oc1ccc(C(=O)Nc2nc(-c3ccc(Cl)cc3)cs2)cc1OC(=O)CCC
Give the ascending ranking of the items by reported inhibition at 6 µg/mL. The labels, placed in the requested order, form the answer. R, Q, P

* * *

Test: Oral pharmacokinetics in mice
Type: in vivo
Settings: female, Swiss-Webster, mouse, whole blood; 100 mg/kg oral gavage, mice
Protocol: Oral pharmacokinetic studies were performed on Compound 8. The compound was dissolved in PEG400 and administered to female Swiss-Webster mice at a dose of 100 mg/kg by oral gavage. […] Concentrations of the test compounds were determined using liquid-liquid extraction, appropriate internal standards and reverse phase HPLC with UV detection. […] Pharmacokinetic parameters were calculated using the WINNONLIN analysis software package (Pharsight). […]
Recorded Endpoint: half-life (h)
Give the quantity in h, number only.

Which half-life is reported for this molecule? CCCC(=O)Oc1ccc(C=CC(=O)Nc2nc(-c3ccc(Cl)cc3)cs2)cc1OC 31.9

* * *

molecular target: recombinant human SK (Homo sapiens, UniProt Q9NYA1); construct: glutathione-S-transferase (GST) (N); made in house; host or cells: bacteria (pGEX vector); assay: Inhibition of recombinant human SK, LC/MS/MS assay; type: biochemical; details: 6 μg/ml compound
Recorded Endpoint: inhibition at 6 µg/mL (%)

O=C(Nc1nc(-c2ccc(Cl)cc2)cs1)C(Cl)c1ccccc1 (stereo not drawn); 55
CCSCCNC(=O)c1nc(-c2ccc(Cl)cc2)cs1; 56
O=C(NCc1ccc(C(F)(F)F)cc1F)c1nc(-c2ccc(Cl)cc2)cs1; 67
O=C(NCc1ccc(F)c(Cl)c1)c1nc(-c2ccc(Cl)cc2)cs1; 69
O=C(NCc1ccc(-c2ccccc2)cc1)c1nc(-c2ccc(Cl)cc2)cs1; 20
O=C(NCc1ccc(OC(F)(F)F)cc1)c1nc(-c2ccc(Cl)cc2)cs1; 78
O=C(Nc1nnn[nH]1)c1nc(-c2ccc(Cl)cc2)cs1; 60

(I) O=C(CCc1ccc(F)cc1F)Nc1nc(-c2ccc(Cl)cc2)cs1
(II) CC(NC(=O)c1nc(-c2ccc(Cl)cc2)cs1)c1ccc(Cl)cc1 (stereo not drawn)
Please let me know which one, I or II , has a lower measured inhibition at 6 µg/mL value. The response must carry the label of the picked entry. I
(I: 21%, II: 81%)

* * *

Entries and their measured IC50 follow.
system: DU145 (prostate); assay: Cytotoxicity, sulforhodamine B, 48 h; type: cell-based; conditions: Homo sapiens, DU-145, mean ± sd
Give the quantity in µM, number only.

Clc1ccc(-c2csc(NCc3ccccc3)n2)cc1; 6.5

As a next step, examine the compound that follows.
Which IC50 is reported for this compound? CCCC(=O)Oc1ccc(C=CC(=O)Nc2nc(-c3ccc(Cl)cc3)cs2)cc1OC 21.2

* * *

molecular target: recombinant human SK (Homo sapiens, UniProt Q9NYA1); construct: glutathione-S-transferase (GST) (N); made in house; host or cells: bacteria (pGEX vector); experiment: Inhibition of recombinant human SK, LC/MS/MS assay; assay type: biochemical; details: 6 μg/ml compound
Recorded Endpoint: inhibition at 6 µg/mL (%)

Some solved cases for reference:
O=C(NCc1ccc(Cl)c(C(F)(F)F)c1)c1nc(-c2ccc(Cl)cc2)cs1 [Compound 37]; 23
O=C(NCCN1CCOCC1)c1nc(-c2ccc(Cl)cc2)cs1 [Compound 76]; 51
CCCC(=O)Oc1ccc(CC(=O)Nc2nc(-c3ccc(Cl)cc3)cs2)cc1[N+](=O)[O-] [Compound 30]; 0
O=C(C=Cc1ccc([N+](=O)[O-])cc1)Nc1nc(-c2ccc(Cl)cc2)cs1 [Compound 5]; 0
O=C(NCCc1cccc(Oc2ccccc2)c1)c1nc(-c2ccc(Cl)cc2)cs1 [Compound 44]; 69

(1) O=C(C=Cc1ccccc1)Nc1nc(-c2ccc(Cl)cc2)cs1 [Compound 7]
(2) CCCC(=O)Oc1ccc(C(=O)Nc2nc(-c3ccc(Cl)cc3)cs2)cc1OC [Compound 24]
(3) CS(=O)(=O)c1ccc(CNC(=O)c2nc(-c3ccc(Cl)cc3)cs2)cc1 [Compound 63]
(4) O=C(Nc1nc(-c2ccc(Cl)cc2)cs1)c1ccc(F)cc1 [Compound 67]
Give the ascending ranking of the items by reported inhibition at 6 µg/mL. The labels, placed in the requested order, form the answer. 2, 3, 4, 1

* * *

system: Caco-2 (colon); experiment: Cytotoxicity, sulforhodamine B, 48 h; format: cell-based; details: Homo sapiens, mean ± sd
Entries and their measured IC50 follow.
Give the quantity in µM, number only.

CCCC(=O)Oc1ccc(C=CC(=O)Nc2nc(-c3ccc(Cl)cc3)cs2)cc1OC [Compound 8]; 2.6

Which IC50 is reported for this compound? Clc1ccc(-c2csc(NCc3ccccc3)n2)cc1 [Compound 73] 6.3

* * *

system: SK-OV-3 (ovary); test: Cytotoxicity, sulforhodamine B, 48 h; type: cell-based; details: Homo sapiens, mean ± sd
Entries and their measured IC50 follow.
Give the quantity in µM, number only.

Clc1ccc(-c2csc(NCc3ccccc3)n2)cc1; 10.2

As a next step, examine the molecule that follows.
Which IC50 is reported for this molecule? CCCC(=O)Oc1ccc(C=CC(=O)Nc2nc(-c3ccc(Cl)cc3)cs2)cc1OC 23.7
